- testSystem: bovine pancreatic trypsin (Bos taurus, UniProt P00760)
- Construct: from tissue; host or cells: bovine pancreas
- Sequence (P00760 24-246): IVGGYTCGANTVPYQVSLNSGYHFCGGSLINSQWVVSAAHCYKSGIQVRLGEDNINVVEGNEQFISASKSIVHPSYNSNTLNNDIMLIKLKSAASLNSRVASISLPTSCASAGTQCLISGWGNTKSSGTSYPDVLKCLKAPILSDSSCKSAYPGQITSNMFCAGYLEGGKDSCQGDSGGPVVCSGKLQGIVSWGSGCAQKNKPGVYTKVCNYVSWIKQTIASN
- measurementNotes: Stability in bovine trypsin
- Format: in vitro ADME
- assayConditions: bovine pancreatic trypsin 2.5 μg/mL, NH4HCO3 buffer pH 8-8.5, 37° C., 100 μM peptide
Square brackets hold non-standard residues; d marks the D form. Peptide text beside a SMILES is read from it. Phe(4-NO2) = N[C@@H](Cc1ccc([N+](=O)[O-])cc1)C(=O)O; Phe(4-Cl) = N[C@@H](Cc1ccc(Cl)cc1)C(=O)O; Sar = CNCC(=O)O
Half Life Trypsin values by entry

| compound | Half Life Trypsin (min) |
| --- | --- |
| CC(C)C[C@H](NC(=O)[C@H](Cc1ccccc1)NC(=O)CN(C)C(=O)[C@@H](N)Cc1ccc(O)cc1)C(=O)N[C@@H](CCCNC(=N)N)C(=O)N[C@H](CCCNC(=N)N)C(N)=O [SEQ ID NO. 3, NH2-Tyr-Sar-Phe-Leu-Arg-DArg-NH2] (H-Y[Sar]FLR[dR]-NH2) | 13.6 |
| CC(C)C[C@H](NC(=O)[C@H](Cc1ccc(Cl)cc1)NC(=O)CN(C)C(=O)[C@@H](N)Cc1ccc(O)cc1)C(=O)N[C@@H](CCCCN)C(=O)N[C@H](CCCNC(=N)N)C(N)=O [SEQ ID NO. 16, NH2-Tyr-Sar-(4-Cl)Phe-Leu-Lys-DArg-NH2] (H-Y[Sar][Phe(4-Cl)]LK[dR]-NH2) | 69.9 |
| CC(C)C[C@H](NC(=O)[C@H](Cc1ccc([N+](=O)[O-])cc1)NC(=O)CN(C)C(=O)[C@@H](N)Cc1ccc(O)cc1)C(=O)N[C@@H](CCCNC(=N)N)C(=O)N[C@H](CCCNC(=N)N)C(N)=O [SEQ ID NO. 4, NH2-Tyr-Sar-(4-NO2)Phe-Leu-Arg-DArg-NH2] (H-Y[Sar][Phe(4-NO2)]LR[dR]-NH2) | 15.4 |
| CC(C)C[C@H](NC(=O)[C@H](Cc1ccc([N+](=O)[O-])cc1)NC(=O)CN(C)C(=O)[C@@H](N)Cc1ccc(O)cc1)C(=O)N[C@H](CCCNC(=N)N)C(=O)N[C@@H](CCCNC(=N)N)C(N)=O [SEQ ID NO. 5, NH2-Tyr-Sar-(4-NO2)Phe-Leu-DArg-Arg-NH2] (H-Y[Sar][Phe(4-NO2)]L[dR]R-NH2) | 3250.0 |

###

cAMP assay MOR 1 μM values by entry
- testSystem: Mu opioid receptor (MOR) (Homo sapiens); further: unit not given here
- Sequence (P35372 whole entry): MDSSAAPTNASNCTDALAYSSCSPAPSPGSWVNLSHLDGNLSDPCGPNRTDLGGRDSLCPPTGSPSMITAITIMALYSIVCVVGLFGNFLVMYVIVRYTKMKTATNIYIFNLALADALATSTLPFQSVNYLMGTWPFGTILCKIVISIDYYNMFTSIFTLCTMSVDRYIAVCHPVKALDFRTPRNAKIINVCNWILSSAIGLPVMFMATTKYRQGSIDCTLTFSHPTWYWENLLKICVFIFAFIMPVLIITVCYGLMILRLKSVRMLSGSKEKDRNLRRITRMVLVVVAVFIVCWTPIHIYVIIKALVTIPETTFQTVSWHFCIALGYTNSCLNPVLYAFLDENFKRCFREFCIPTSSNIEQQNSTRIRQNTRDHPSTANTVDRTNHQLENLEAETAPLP
- measurementNotes: cell-based
- Format: cell-based
Square brackets hold non-standard residues; d marks the D form. Peptide text beside a SMILES is read from it. Phe(4-NO2) = N[C@@H](Cc1ccc([N+](=O)[O-])cc1)C(=O)O; Phe(4-Cl) = N[C@@H](Cc1ccc(Cl)cc1)C(=O)O; Sar = CNCC(=O)O

| compound | testSystem | cAMP assay MOR 1 μM |
| --- | --- | --- |
| CC(C)C[C@H](NC(=O)[C@H](Cc1ccc([N+](=O)[O-])cc1)NC(=O)CN(C)C(=O)[C@@H](N)Cc1ccc(O)cc1)C(=O)N[C@H](CCCNC(=N)N)C(=O)N[C@@H](CCCNC(=N)N)C(N)=O [SEQ ID NO. 5, NH2-Tyr-Sar-(4-NO2)Phe-Leu-DArg-Arg-NH2] (H-Y[Sar][Phe(4-NO2)]L[dR]R-NH2) | Mu opioid receptor (MOR) (Homo sapiens) | −0.05 |
| CC(C)C[C@H](NC(=O)[C@H](Cc1ccccc1)NC(=O)CN(C)C(=O)[C@@H](N)Cc1ccc(O)cc1)C(=O)N[C@@H](CCCNC(=N)N)C(=O)N[C@@H](CCCNC(=N)N)C(N)=O [SEQ ID NO. 2, NH2-Tyr-Sar-Phe-Leu-Arg-Arg-NH2] (H-Y[Sar]FLRR-NH2) | Mu opioid receptor (MOR) (Homo sapiens) | −2.5 |
| CC(C)C[C@@H](NC(=O)[C@@H](Cc1ccccc1)NC(=O)[C@H](N)Cc1ccccc1)C(=O)N[C@H](CCCCN)C(=O)N1CCC(N)(C(=O)O)CC1 [SEQ ID NO. 35, DPhe-DPhe-DLeu-DLys-Cap-CO2H, reference compound] | Mu opioid receptor (MOR) (Homo sapiens) | 0.37 |
| CC(C)C[C@H](NC(=O)[C@H](Cc1ccc([N+](=O)[O-])cc1)NC(=O)CN(C)C(=O)[C@@H](N)Cc1ccc(O)cc1)C(=O)N[C@@H](CCCNC(=N)N)C(=O)N[C@H](CCCNC(=N)N)C(N)=O [SEQ ID NO. 4, NH2-Tyr-Sar-(4-NO2)Phe-Leu-Arg-DArg-NH2] (H-Y[Sar][Phe(4-NO2)]LR[dR]-NH2) | Mu opioid receptor (MOR) (Homo sapiens) | 0.17 |
| CC(C)C[C@H](NC(=O)[C@H](Cc1ccc(Cl)cc1)NC(=O)CN(C)C(=O)[C@@H](N)Cc1ccc(O)cc1)C(=O)N[C@@H](CCCNC(=N)N)C(=O)N[C@H](CCCNC(=N)N)C(N)=O [SEQ ID NO. 11, NH2-Tyr-Sar-(4-Cl)Phe-Leu-Arg-DArg-NH2] (H-Y[Sar][Phe(4-Cl)]LR[dR]-NH2) | Mu opioid receptor (MOR) (Homo sapiens) | −0.86 |
| CC(C)C[C@H](NC(=O)[C@H](Cc1ccccc1)NC(=O)CN(C)C(=O)[C@@H](N)Cc1ccc(O)cc1)C(=O)N[C@@H](CCCNC(=N)N)C(=O)N[C@H](CCCNC(=N)N)C(N)=O [SEQ ID NO. 3, NH2-Tyr-Sar-Phe-Leu-Arg-DArg-NH2] (H-Y[Sar]FLR[dR]-NH2) | Mu opioid receptor (MOR) (Homo sapiens) | −0.68 |

Each recorded value in this set is attributed to patent US20240301023A1.
